- target_under_test: GLP-1 receptor (GLP-1R), primary cAMP assay cell line (human, UniProt P43220 24-463)
- test: cell-based or functional assay
Starred links: 1 amine or outer side, 2 acyl side, 3 side chain; linkers in the order of their positions; H or OH if unused. Non-standard residues stand in square brackets, D forms with d. Groups on a side chain read outwards from the residue. Primed or numbered codes have the meaning given here. No end group written: not given here. *: point of attachment. γGlu = O=C(O)[C@H](CCC(=O)[*:2])N[*:1]; αMeF = C[C@](N)(Cc1ccccc1)C(=O)O; αMeK = C[C@](N)(CCCCN)C(=O)O; Lauroyl = CCCCCCCCCCCC(=O)*; αMeS = C[C@](N)(CO)C(=O)O; PEG2′ = not defined here; Aib = CC(C)(N)C(=O)O
observable: cAMP Primary assay EC50, Mean pM GLP-1R (pM)

H[Aib]EGS[αMeF]TSDK([PEG2′-PEG2′-γGlu-Lauroyl])SSYLEGEK([PEG2′-PEG2′-γGlu-Lauroyl])A[αMeK]EFIAFK([PEG2′-PEG2′-γGlu-Lauroyl])VEGG-NH2 [SEQ ID NO: 473] | 434
H[Aib]EGS[αMeF]TSDV[αMeS]SK([PEG2′-PEG2′-γGlu-Lauroyl])LEGEAA[αMeK]K([PEG2′-PEG2′-γGlu-Lauroyl])FIK([PEG2′-PEG2′-γGlu-Lauroyl])FVVEGG-NH2 [SEQ ID NO: 450] | 49
H[Aib]EGS[αMeF]TSDV[αMeS]SK([PEG2′-PEG2′-γGlu-Lauroyl])LEGEAA[αMeK]K([PEG2′-PEG2′-γGlu-Lauroyl])FIAFK([PEG2′-PEG2′-γGlu-Lauroyl])VEGG-NH2 [SEQ ID NO: 482] | 36.3
H[Aib]EGS[αMeF]TSDV[αMeS]SYK([PEG2′-PEG2′-γGlu-Lauroyl])EGK([PEG2′-PEG2′-γGlu-Lauroyl])AA[αMeK]EFIAFK([PEG2′-PEG2′-γGlu-Lauroyl])VEGG-NH2 [SEQ ID NO: 484] | 166

Reference source for all entries: patent US20200079833A1
